- ASSAYED_TARGET: T1, ZFP SBS#927 (synthetic)
- T1 chain: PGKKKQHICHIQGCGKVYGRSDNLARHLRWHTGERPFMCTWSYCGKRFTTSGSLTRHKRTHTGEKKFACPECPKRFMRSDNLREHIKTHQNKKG
- TEST_SUMMARY: EMSA
- CONDITION_CONTEXT: tags: MBP fusion
pKd: −log10 of the molar value.
ASSAY_READOUT: pKd

BINDER | ASSAY_READOUT | NUMERIC_RESULT
CAGGTTGAG (dsDNA) DNA 1: CAGGTTGAG DNA 2: CTCAACCTG | pKd | 8.44

Reference source: patent US20030068675
